- assay_protocol: blockers of mitochondrial swelling – biochemical, absorbance, isolated mitochondria, dry powder samples, dose response (AID 720722)
Activity calls are given as the source filed them. The limit is not given here; nearly all actives have IC50 up to about 12 µM.
Below is a list of entries, each paired with its recorded IC50 value.
recorded_metric: IC50

[[record]]
structure_smiles = "C=CCNCCOCCOc1ccc(Cl)cc1C(C)(C)C"
recorded_metric = "IC50"
experimental_value = "4.04 µM (active)"

[[record]]
structure_smiles = "COCCCNCCCOc1ccc(Cl)cc1C(C)(C)C"
recorded_metric = "IC50"
experimental_value = "4.04 µM (active)"

[[record]]
structure_smiles = "Cc1cc(C)c2nc(N(CCCN(C)C)C(=O)C3=COCCO3)sc2c1"
recorded_metric = "IC50"
experimental_value = "3.11 µM (active)"

[[record]]
structure_smiles = "C=CCNCCOc1ccc(C(C)(C)c2ccccc2)cc1"
recorded_metric = "IC50"
experimental_value = "12.4 µM (active)"

[[record]]
structure_smiles = "CCN(CC)CCCN=Cc1c(O)n(Cc2ccccc2)c(=O)c2ccccc12"
recorded_metric = "IC50"
experimental_value = "3.34 µM (active)"

[[record]]
structure_smiles = "N#Cc1c(NCCN)nc(-c2ccco2)c2c1CCCC2"
recorded_metric = "IC50"
experimental_value = "8.12 µM (active)"

[[record]]
structure_smiles = "COc1ccc(-n2cc(CNC3CCN(C)CC3)c(-c3cccc(F)c3)n2)cc1"
recorded_metric = "IC50"
experimental_value = "2.03 µM (active)"

[[record]]
structure_smiles = "COc1ccc(C)c2sc(N(CCCN(C)C)C(=O)CS(=O)(=O)c3ccc(F)cc3)nc12"
recorded_metric = "IC50"
experimental_value = "3.9 µM (active)"

[[record]]
structure_smiles = "CN1CCC[C@@H]1CCO[C@](C)(c1ccccc1)c1ccc(Cl)cc1"
recorded_metric = "IC50"
experimental_value = "4.43 µM (active)"

[[record]]
structure_smiles = "COC(=O)c1c(NC(=O)C2CCCCC2)sc2c1CC(C)(C)NC2(C)C"
recorded_metric = "IC50"
experimental_value = "3.64 µM (active)"

[[record]]
structure_smiles = "CNCCC=C1c2ccccc2CCc2ccccc21"
recorded_metric = "IC50"
experimental_value = "8.45 µM (active)"

[[record]]
structure_smiles = "N=c1sccn1CC(=O)Nc1cccc(Oc2ccccc2)c1"
recorded_metric = "IC50"
experimental_value = "2.92 µM (active)"

